Where do these numbers come from? They come from patent US11136317B2.

TARGET DESC: human NOX4 (Homo sapiens, UniProt Q9NPH5)
Construct: The full-length human NOX4 (NM_016931.3) transcript was cloned
Sequence (Q9NPH5 whole entry): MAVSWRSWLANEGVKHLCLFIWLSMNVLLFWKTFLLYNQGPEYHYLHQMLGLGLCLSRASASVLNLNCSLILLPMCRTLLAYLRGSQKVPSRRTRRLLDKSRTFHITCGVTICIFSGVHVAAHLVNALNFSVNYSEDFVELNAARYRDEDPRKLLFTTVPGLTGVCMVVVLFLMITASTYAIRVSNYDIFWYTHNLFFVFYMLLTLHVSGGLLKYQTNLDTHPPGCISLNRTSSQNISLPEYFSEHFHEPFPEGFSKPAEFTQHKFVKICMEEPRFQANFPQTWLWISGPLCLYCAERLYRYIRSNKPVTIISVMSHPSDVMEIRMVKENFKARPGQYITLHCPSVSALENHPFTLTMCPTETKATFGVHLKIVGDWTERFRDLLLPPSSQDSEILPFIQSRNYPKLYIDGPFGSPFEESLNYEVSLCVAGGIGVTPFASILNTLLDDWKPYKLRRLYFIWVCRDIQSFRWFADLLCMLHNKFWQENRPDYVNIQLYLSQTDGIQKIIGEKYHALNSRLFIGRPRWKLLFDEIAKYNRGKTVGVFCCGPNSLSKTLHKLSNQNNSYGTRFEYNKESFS
Sequence (P13498 whole entry partner): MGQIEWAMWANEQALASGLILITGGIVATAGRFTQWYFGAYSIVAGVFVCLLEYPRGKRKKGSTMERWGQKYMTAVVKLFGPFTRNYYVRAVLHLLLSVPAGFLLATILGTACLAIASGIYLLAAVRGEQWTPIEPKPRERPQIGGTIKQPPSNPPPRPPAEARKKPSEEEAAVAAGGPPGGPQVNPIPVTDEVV
METHOD SUMMARY: Amplex Red activity assay (cellular H2O2 formation in hNOX4 T-REx-293 cells)
EXPERIMENTAL CONDITIONS: tet-induced 24 h, extracellular H2O2 by Amplex Red, 60 min 25° C., geometric mean if determined several times
pIC50: −log10 of the molar value.
RESULT TYPE: pIC50

I. CN1CCOc2ccc(C(=O)Nc3ccc4oc(N5CCCC6(COC6)C5)nc4c3)cc21 [Example 189]
II. CN(C)CCN(C)c1nc2cc(NC(=O)c3ccc4c(c3)CCO4)ccc2s1 [Example 93]
III. O=C(Nc1ccc2c(c1)CCO2)c1ccc2sc(N3CCC34COC4)nc2c1 [Example 197]
Take the compounds listed above and rank them by pIC50; the top slot goes to the highest value. Write the labels, ordered according to the request.
III, I, II
(III: 6.14, I: 5.66, II: 4.99)
